Reference for the values: patent US12532884B2

system: Septoria tritici; test: Example C2: mixtures against Septoria tritici (leaf blotch), liquid culture; assay type: cell-based; settings: Zymoseptoria tritici; single component, 0.3 ppm; 100-0 scale; read-out: Activity (%)
Listed below: inhibition at 0.3 ppm values for each entry.

# compound, inhibition at 0.3 ppm
measured = [
    ("CCCC1COC(Cn2cncn2)(c2ccc(Cl)cc2Cl)O1 (stereo not shown)", "70%"),
    ("CC(C1CC1)C(O)(Cn1cncn1)c1ccc(Cl)cc1 (stereo not shown)", "50%"),
    ("O=C1c2ccccc2C(=O)N1SC(Cl)(Cl)Cl [folpet, reference compound]", "20%"),
    ("N#Cc1c(Cl)c(Cl)c(Cl)c(C#N)c1Cl [chlorothalonil, reference compound]", "50%"),
]

* * *

system: Puccinia recondita (Brown rust); experiment: Example B: comparative biological activity against Puccinia recondita (brown rust), curative, wheat leaf segments; type: in vivo; conditions: 60 ppm, 8 dpi
assay-endpoint: control (%)

# compound, value-units, measured-number
data = [
    ("CO/C=C(\\Oc1cc(C#CC2CCCCC2)ccc1C)C(=O)OC [Reference Compound Z-1, reference compound]", "%", 0),
    ("CO/C=C(\\Oc1cccc(C(C)(C)C)c1)C(=O)OC [Reference Compound Z-2, reference compound]", "%", 0),
    ("CO/C=C(\\Oc1cc(C2CCCCC2)ccc1C)C(=O)OC", "%", 100),
    ("CO/C=C(\\Oc1cc(C2CCCC2)ccc1C)C(=O)OC", "%", 0),
]
